B1: Pistol ribozyme (parent)
chain: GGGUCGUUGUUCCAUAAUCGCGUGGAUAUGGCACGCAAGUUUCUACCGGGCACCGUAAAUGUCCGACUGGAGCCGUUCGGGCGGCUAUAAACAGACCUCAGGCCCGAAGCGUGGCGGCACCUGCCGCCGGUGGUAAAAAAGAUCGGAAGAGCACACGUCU

variants of: B1; assay: aptazyme ON/OFF ratio, guanine; higher = stronger switching; co-transcriptional cleavage with and without guanine
Parameter measured: aptazyme ON/OFF ratio
Answers are plain numbers.

{"columns": ["Var", "Parameter measured", "Measured value"],
 "data": [
  ["U7G U8G G9U U10A U11A C12G C13G", "aptazyme ON/OFF ratio", 1.11],
  ["U7A U8A G9U U10G U11A C13A", "aptazyme ON/OFF ratio", 1.02],
  ["G9U U10G C12A C13A", "aptazyme ON/OFF ratio", 0.843],
  ["U7A U10A C13G", "aptazyme ON/OFF ratio", 1.05]
]}

// batch mode: one aptazyme ON/OFF ratio value per listed entry
1. U7C G9A U10A U11A C12G C13A
2. U7G U8A U10G U11C C13G
3. U8A U10G U11C C12U C13G

Return:
1. 1.17
2. 1.16
3. 1.27
